Test system: U2OS
Assay: relative viability EC50 (midpoint between 100% and the lowest measured viability); higher = less toxic
Settings: 72 h
Give measured relative viability EC50 for each item. Keep answers brief.

[
  {
    "COMPOUND": "Fc1cc(-c2cccc3ncc(-c4cnn(C5CCNCC5)c4)nc23)cc(F)c1CN1CCOCC1 [NVP-BSK805]",
    "RESULT": "2.9 µM"
  },
  {
    "COMPOUND": "CCOc1cn(-c2ccc(F)cc2C)nc1C(=O)Nc1ccc(Oc2ccnc3cc(OC)c(OC)cc23)c(F)c1 [LDC1267]",
    "RESULT": "> 10 µM"
  },
  {
    "COMPOUND": "COc1cnc(-c2ccc(Cn3c(CC(C)(C)C(=O)O)c(SC(C)(C)C)c4cc(OC[C@@H]5Cc6ccccc6N5C(C)=O)ccc43)cc2)nc1 [AM679]",
    "RESULT": "> 10 µM"
  },
  {
    "COMPOUND": "N[C@]1(C(=O)O)CC[C@@H](C(=O)O)C1 [cis-ACPD]",
    "RESULT": "> 10 µM"
  },
  {
    "COMPOUND": "CCCN1CCCC[C@H]1C(=O)Nc1c(C)cccc1C [ropivacaine]",
    "RESULT": "> 10 µM"
  }
]

Provide relative viability EC50 values for the following items, in order.
1. O=C(COc1ccc(Cl)cc1)N[C@H]1CC[C@H](NC(=O)COc2ccc(Cl)cc2)CC1 [ISRIB]
2. CCCCc1nc(-c2ccc(OCCCN(CC)CC)cc2)cn1-c1ccc(Oc2ccc(Cl)cc2)cc1 [azeliragon]
3. C[C@]12CC[C@@H](O)C[C@H]1CC[C@@H]1[C@@H]2CC[C@]2(C)C(=O)CC[C@@H]12 [3-alpha-hydroxy-5-beta-androstan-17-one]
4. COc1cc2c(NC3CCN(C)CC3)nc(N3CCCN(C)CC3)nc2cc1OCCOCCN(C)C [UNC0321]
5. C[C@@H](Oc1ccc2[nH]nc(/C=C/c3cnn(CCO)c3)c2c1)c1c(Cl)cncc1Cl

// result
["> 10 µM", "2.12 µM", "> 10 µM", "> 10 µM", "0.582 µM"]

###

Tested on: A549-ACE2
Assay: drug-induced phospholipidosis relative to tamoxifen; higher = more phospholipidosis
Conditions: 6.66667 µM; 24 h
EXPERIMENTAL_ENDPOINT: drug-induced phospholipidosis (%)
Answers are plain numbers, in %.

For orientation, consider the following solved cases.
[
  {
    "COMPOUND": "Cc1[nH]c(/C=C2\\C(=O)Nc3ccc(F)cc32)c(C)c1C(=O)NCCN1CCCC1 [toceranib]",
    "NUMBER": 38.6
  },
  {
    "COMPOUND": "CN1CC2c3ccccc3Oc3ccc(Cl)cc3C2C1 (centres undefined) [asenapine]",
    "NUMBER": 56.2
  },
  {
    "COMPOUND": "Fc1cc(-c2cccc3ncc(-c4cnn(C5CCNCC5)c4)nc23)cc(F)c1CN1CCOCC1 [NVP-BSK805]",
    "NUMBER": 93.5
  }
]

// query Output measured drug-induced phospholipidosis for this item: "Cc1csc(NC(=O)CSc2ccc(-c3ccccc3)nn2)n1"
// result 2.15

###

System: HepG2
Test: cell viability relative to DMSO; higher = less toxic
Settings: 72 h; 100 nM
Provide the recorded cell viability for the entries that follow.
Numbers only, in %.

[
  {
    "COMPOUND": "CCCSc1ccc2[nH]c(NC(=O)OC)nc2c1",
    "cell viability [%]": 85.6
  },
  {
    "COMPOUND": "CCCCCCCCCCCCCCCC[N+](C)(C)CCN(Cc1ccc(OC)cc1)c1ncccn1",
    "cell viability [%]": 93.8
  },
  {
    "COMPOUND": "CC(C)(C)NCC(O)c1cc(Br)no1 (centres undefined)",
    "cell viability [%]": 92.5
  },
  {
    "COMPOUND": "COc1cccc2c1C(=O)c1c(O)c3c(c(O)c1C2=O)C[C@@](O)(C(C)=O)C[C@@H]3O[C@H]1C[C@H](N)[C@H](O)[C@H](C)O1",
    "cell viability [%]": 43.3
  }
]

Your task in this section: give cell viability for each listed record.
1. O=C(NC(Cc1cc(=O)[nH]c2ccccc12)C(=O)O)c1ccc(Cl)cc1 (centres undefined) [rebamipide]
2. CC(C)NCC(O)COc1cccc2[nH]c3ccccc3c12 (centres undefined)
3. CC(CCc1ccc(O)cc1)NCCc1ccc(O)c(O)c1 (centres undefined)
4. C=C1CC/C=C(\C)CC[C@@H]2[C@@H]1CC2(C)C
5. N#CC(=C(/N)Sc1ccccc1N)/C(C#N)=C(/N)Sc1ccccc1N

// result
108
98.6
93.1
113
94.7

###

Tested on: U2OS
Test: relative viability EC50 (midpoint between 100% and the lowest measured viability); higher = less toxic
Conditions: 72 h
EXPERIMENTAL_ENDPOINT: relative viability EC50

Okay, here is my list. What is relative viability EC50 for each of these?
1. CC[C@H](C)[C@H](N)C(=O)O [isoleucine]
2. CC(C)c1cc(-c2n[nH]c(=O)n2-c2ccc3c(ccn3C)c2)c(O)cc1O [ganetespib]

// result
1: > 10 µM; 2: 0.0307 µM

Please give relative viability EC50, item by item, for the list that follows.
1. Cc1cc(C(=O)Nc2nc3cccc(Cl)c3n2[C@@H]2CCCCN(C(=O)/C=C/CN(C)C)C2)ccn1 [EGF816]
2. NCc1cc(O)no1 [muscimol]
3. C=C1C(=O)[C@]23[C@H](O)[C@H]1CC[C@H]2[C@@]12CO[C@]3(O)[C@@H](O)[C@@H]1C(C)(C)CC[C@@H]2O [Oridonin (Isodonol)]
4. CC(C)[N+](C)(CCOC(=O)C1c2ccccc2Oc2ccccc21)C(C)C [propantheline]
5. CC(C)=CCC/C(C)=C/CC/C(C)=C/CSc1ccccc1C(=O)O [salirasib]

// result
["> 10 µM", "> 10 µM", "2.66 µM", "> 10 µM", "> 10 µM"]

Lab note: each compound below needs its relative viability EC50 filled in.
1. COc1ccc(-c2cc(C(F)F)nn2-c2ccc(S(N)(=O)=O)cc2)cc1F [deracoxib]
2. CC(C)(C)C(=O)OCC(=O)[C@H]1CC[C@H]2[C@@H]3CCC4=CC(=O)CC[C@]4(C)[C@H]3CC[C@]12C [desoxycorticosterone-pivalate]
3. CC[N+](C)(CC)CC(=O)Nc1c(C)cccc1C [N-methyllidocaine-iodide]
4. CC(C)(C)c1ccc(NC(=O)N2CCN(c3ncccc3Cl)CC2)cc1 [BCTC]
5. COc1ccc(N(C(=O)Oc2c(C)cccc2C)c2ccnc(Nc3ccc(N4CCN(C)CC4)cc3)n2)c(OC)c1 [WH-4-023]
6. C[C@H](c1ccc(F)cc1CCCC(=O)O)N(c1cc(F)ccc1F)S(=O)(=O)c1ccc(Cl)cc1
7. CCCN(CCC)C(=O)C1=Cc2ccc(-c3ccc(C(=O)N4CCCC4)cc3)cc2N=C(N)C1 [motolimod]

// result
> 10 µM
> 10 µM
> 10 µM
> 10 µM
> 10 µM
> 10 µM
> 10 µM

For each of the compounds below, note its relative viability EC50.
1. CCCCC#Cc1nc(NC)c2ncn([C@@H]3O[C@H](CO)[C@@H](O)[C@H]3O)c2n1 [HEMADO]
2. CCc1[nH]c(=O)[nH]c1C(=O)c1ccncc1 [piroximone]
3. O=C(O)CCC/C=C\C[C@@H]1[C@@H](/C=C/[C@@H](O)COc2cccc(Cl)c2)[C@H](O)C[C@@H]1O (racemic) [cloprostenol-(+/-)]

// result
> 10 µM
> 10 µM
> 10 µM

###

Please provide measured cell viability for the entries that follow.
Tested on: U2OS
Assay: cell viability relative to DMSO; higher = less toxic
Settings: 72 h; 100 nM
Give bare numbers, in %.

Previously resolved entries follow.
[
  {
    "COMPOUND": "COc1cnc(-c2ccc(Cn3c(CC(C)(C)C(=O)O)c(SC(C)(C)C)c4cc(OC[C@@H]5Cc6ccccc6N5C(C)=O)ccc43)cc2)nc1",
    "cell viability, %": 99.7
  },
  {
    "COMPOUND": "COc1cc(C(=O)NCCCCCC(=O)O)cc(OC)c1OC",
    "cell viability, %": 94.7
  },
  {
    "COMPOUND": "Sc1ncnc2nc[nH]c12",
    "cell viability, %": 93.4
  }
]

Would you be so kind as to report cell viability for each listed record?
1. CC(C)c1cc(-c2ccc(F)c3ccccc23)nc(N)n1
2. CCCNC(C)C(=O)Nc1c(C)csc1C(=O)OC (stereo not drawn)
3. CC[C@H](C)[C@H](N)C(=O)O
4. CO[C@H]1/C=C/O[C@@]2(C)Oc3c(C)c(O)c4c(O)c(c(/C=N/N5CCN(C6CCCC6)CC5)c(O)c4c3C2=O)NC(=O)/C(C)=C\C=C\[C@H](C)[C@H](O)[C@@H](C)[C@@H](O)[C@@H](C)[C@H](OC(C)=O)[C@@H]1C

// result
98.7
99.7
96.3
95.3

// query Quick one: give measured cell viability for "CC(C)=CCC/C(C)=C/CC/C(C)=C/CSc1ccccc1C(=O)O"
// result 98
